Data origin: the supplement of paper PMC12667976

B1: library; numbered along this chain (parent)
chain: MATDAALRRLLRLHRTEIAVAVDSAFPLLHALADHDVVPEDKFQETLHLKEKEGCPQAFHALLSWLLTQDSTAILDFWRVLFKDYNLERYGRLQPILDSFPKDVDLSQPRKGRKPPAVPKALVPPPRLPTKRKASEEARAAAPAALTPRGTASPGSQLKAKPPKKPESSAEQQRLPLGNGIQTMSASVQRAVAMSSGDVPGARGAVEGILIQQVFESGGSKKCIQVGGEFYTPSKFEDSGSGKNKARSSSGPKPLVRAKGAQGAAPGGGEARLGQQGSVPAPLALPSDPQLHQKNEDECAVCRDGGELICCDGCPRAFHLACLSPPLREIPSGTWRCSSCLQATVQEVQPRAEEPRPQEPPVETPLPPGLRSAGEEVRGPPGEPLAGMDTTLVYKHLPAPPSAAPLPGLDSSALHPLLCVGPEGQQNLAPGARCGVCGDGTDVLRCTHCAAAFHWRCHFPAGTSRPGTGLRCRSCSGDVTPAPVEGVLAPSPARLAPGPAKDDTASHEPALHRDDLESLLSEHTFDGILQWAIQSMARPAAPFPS

Variants of: B1
Protocol Description: AIRE transcriptional activation functional score (insulin promoter-GFP; nonsense median 0, synonymous median 1) (normalised score); higher = higher AIRE activity (more reporter activation)
Protocol Conditions: with insulin promoter-GFP reporter in HEK293
Measurement Label: AIRE transcriptional activation functional score

| Variant String | Observed Measurement |
| --- | --- |
| R433Q | 1.13 |
| Q275E | 1.26 |
| M536P | 0.215 |
| D98K | -0.443 |
| A19K | 0.838 |
| P315A | 0.558 |
| T524P | 0.528 |
| E88C | 0.444 |
| L397F | 0.99 |
| V22Y | -0.0365 |
| D410R | 0.412 |
| A145P | 0.887 |
| K253P | 0.292 |
| S491Q | 0.998 |
| H458P | 0.0561 |
| L417W | 1.3 |
| E359D | 0.954 |
| V348E | 0.956 |
| D312I | 0.684 |
| I209S | 0.203 |
| I528E | 0.137 |
| P367L | 0.763 |
| R378G | 0.98 |
| L341C | 1.24 |
